// data source = patent EP4786492A1

- TARGET_OR_TEST_SYSTEM: monkey DLL3 on CHO-K1-cyno DLL3 cells (cynomolgus monkey)
- Sequence (chain, as listed by the source limits assumed): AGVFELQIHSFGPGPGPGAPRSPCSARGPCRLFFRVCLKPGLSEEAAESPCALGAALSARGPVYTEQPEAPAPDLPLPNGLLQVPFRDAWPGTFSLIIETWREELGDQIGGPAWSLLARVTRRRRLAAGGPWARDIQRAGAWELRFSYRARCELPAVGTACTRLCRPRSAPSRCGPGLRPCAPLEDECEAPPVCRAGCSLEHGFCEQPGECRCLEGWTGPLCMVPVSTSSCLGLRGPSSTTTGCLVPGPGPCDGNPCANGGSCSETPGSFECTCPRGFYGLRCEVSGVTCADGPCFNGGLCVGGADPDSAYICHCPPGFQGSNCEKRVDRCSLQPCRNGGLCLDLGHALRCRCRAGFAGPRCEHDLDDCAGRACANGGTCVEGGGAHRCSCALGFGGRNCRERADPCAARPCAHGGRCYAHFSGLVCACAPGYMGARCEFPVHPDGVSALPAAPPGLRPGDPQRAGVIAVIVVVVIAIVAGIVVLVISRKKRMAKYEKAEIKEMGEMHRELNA
- ASSAY_EXPLANATION: FACS, CHO-K1-cyno DLL3 cells, 0.032 nM antibody
MFI for assorted binders
Kindly provide the numeric value in MFI only, without the unit symbol.

Look over these answered cases.
{"BINDER": "Hab015VL4VH5a-hFc (scFv, part only; not given: VL-VH linker and human IgG1 Fc, V domains shown, not shown: another chain or arm of the molecule; a dimerising Fc or GST; small tags and cut ends) VL: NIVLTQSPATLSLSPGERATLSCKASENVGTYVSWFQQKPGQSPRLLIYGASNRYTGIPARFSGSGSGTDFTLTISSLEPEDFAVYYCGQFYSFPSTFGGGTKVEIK VH: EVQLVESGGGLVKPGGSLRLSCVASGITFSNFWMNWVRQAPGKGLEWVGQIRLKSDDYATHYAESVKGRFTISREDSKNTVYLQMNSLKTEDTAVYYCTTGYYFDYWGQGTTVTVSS", "READOUT_NUMBER": 377}
{"BINDER": "Hab014VL3VH1-hFc (scFv, part only; not given: VL-VH linker and human IgG1 Fc, V domains shown, not shown: another chain or arm of the molecule; a dimerising Fc or GST; small tags and cut ends) VL: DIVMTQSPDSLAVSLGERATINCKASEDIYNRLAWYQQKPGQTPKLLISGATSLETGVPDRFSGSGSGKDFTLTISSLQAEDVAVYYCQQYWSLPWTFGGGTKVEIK VH: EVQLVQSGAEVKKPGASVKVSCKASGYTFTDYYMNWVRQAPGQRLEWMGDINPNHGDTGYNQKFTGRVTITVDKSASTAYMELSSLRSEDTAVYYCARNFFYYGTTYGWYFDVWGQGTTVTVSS", "READOUT_NUMBER": 565}

Proceed to the following item.
Form: binder = Hab006VL4VH1-hFc (scFv, part only; not given: scFv linker and human IgG1 Fc, V domains shown, not shown: another chain or arm of the molecule; a dimerising Fc or GST; small tags and cut ends) VL: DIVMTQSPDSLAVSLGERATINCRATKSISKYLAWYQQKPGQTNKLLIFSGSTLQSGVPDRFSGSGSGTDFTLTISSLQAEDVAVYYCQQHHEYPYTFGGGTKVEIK VH: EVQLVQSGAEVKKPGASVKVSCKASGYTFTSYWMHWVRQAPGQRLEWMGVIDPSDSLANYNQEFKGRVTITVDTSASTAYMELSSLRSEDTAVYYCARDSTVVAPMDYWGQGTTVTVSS ; MFI = 1110
